Below, each entry is listed alongside its reported mouse B lymphocyte proliferation (OD450 nm), antibody 20 nM.
target: mouse BLyS protein (mouse, UniProt Q9WU72 69-309); experiment: cell-based or functional assay
Sequence (Q9WU72 69-309): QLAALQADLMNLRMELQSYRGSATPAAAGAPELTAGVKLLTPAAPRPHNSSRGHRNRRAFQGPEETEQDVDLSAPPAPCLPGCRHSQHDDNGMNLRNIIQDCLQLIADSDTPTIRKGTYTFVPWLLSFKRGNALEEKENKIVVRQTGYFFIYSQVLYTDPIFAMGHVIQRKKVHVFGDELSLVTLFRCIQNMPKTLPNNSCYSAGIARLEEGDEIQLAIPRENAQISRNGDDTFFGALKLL
The figure you give is taken to be in OD450 nm; do not add the unit.

binder="97E7B3F2 (antibody, V domains shown, Mouse hybridoma monoclonal antibody purified on Protein G) VH: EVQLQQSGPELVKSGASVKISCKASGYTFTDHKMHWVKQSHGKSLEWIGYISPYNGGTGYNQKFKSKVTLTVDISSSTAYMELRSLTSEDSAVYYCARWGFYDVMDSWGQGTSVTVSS VL: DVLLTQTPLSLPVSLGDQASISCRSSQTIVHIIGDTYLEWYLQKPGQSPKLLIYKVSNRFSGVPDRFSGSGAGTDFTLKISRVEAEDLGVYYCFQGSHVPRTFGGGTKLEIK" unit_abbrev="OD450 nm" result_value=2290
binder="78C11D2D12 (antibody, V domains shown, Mouse hybridoma monoclonal antibody purified on Protein G) VH: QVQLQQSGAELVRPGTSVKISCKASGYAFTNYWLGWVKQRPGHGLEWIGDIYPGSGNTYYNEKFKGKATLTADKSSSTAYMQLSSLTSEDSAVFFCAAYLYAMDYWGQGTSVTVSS VL: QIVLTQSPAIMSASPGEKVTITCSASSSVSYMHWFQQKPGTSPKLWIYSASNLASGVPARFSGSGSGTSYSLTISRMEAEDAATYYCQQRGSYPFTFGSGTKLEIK" unit_abbrev="OD450 nm" result_value=2470

Query block: Can you look up the measured mouse B lymphocyte proliferation (OD450 nm), antibody 20 nM of 111D10D6G3 (antibody, V domains shown, Mouse hybridoma monoclonal antibody purified on Protein G) VH: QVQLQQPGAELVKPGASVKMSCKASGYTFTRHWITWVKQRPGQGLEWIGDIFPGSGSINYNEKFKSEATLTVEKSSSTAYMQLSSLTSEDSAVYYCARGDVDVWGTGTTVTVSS VL: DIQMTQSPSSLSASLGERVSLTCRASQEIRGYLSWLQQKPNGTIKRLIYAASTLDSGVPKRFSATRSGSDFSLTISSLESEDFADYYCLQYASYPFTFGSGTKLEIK for me?
Result block: 2540

Attribution: patent US20210347873A1
